System: nutsedge, yellow
Assay: Test C preemergence
Assay type: in vivo, Cyperus esculentus
Details: preemergence, 125 g ai/ha; scale 0 to 100, 0 is no effect, 100 is complete control
In this section, each of the molecules is paired with its reported Nutsedge, Yellow plant response rating.

{"MOLECULE": "CCCNC(=O)c1cc(CC)n(Cc2nc(C(F)(F)F)nn2C)n1 [Compound 109]", "Nutsedge, Yellow plant response rating": 40}
{"MOLECULE": "Cc1cc(C(=O)NCC(F)(F)F)nn1Cc1ccnc(C(F)(F)F)c1 [Compound 74]", "Nutsedge, Yellow plant response rating": 80}
{"MOLECULE": "CCc1cc(C(=O)NOC(C)C)nn1Cc1cccc(OC(F)(F)F)c1 [Compound 70]", "Nutsedge, Yellow plant response rating": 70}
{"MOLECULE": "CCc1cc(C(=O)NCC(F)(F)F)nn1Cc1nc(C(F)(F)F)nn1C [Compound 107]", "Nutsedge, Yellow plant response rating": 85}

====

Tested on: blackgrass
Test: Test C postemergence
Type: in vivo, Alopecurus myosuroides
Details: postemergence; 125 g ai/ha; scale 0 to 100, 0 no effect, 100 complete control

{"COMPOUND": "CCc1cc(C(=O)NCC(F)(F)F)nn1Cc1nc(C(F)(F)F)nn1C [Compound 107]", "Plant response rating, Blackgrass": 15}
{"COMPOUND": "CCNC(=O)c1cc(CC)n(Cc2cc(C(F)(F)F)nn2C)n1 [Compound 154]", "Plant response rating, Blackgrass": 10}
{"COMPOUND": "CCc1cc(C(=O)NC2CC2)nn1Cc1ccnc(C(F)(F)F)c1 [Compound 76]", "Plant response rating, Blackgrass": 5}
{"COMPOUND": "CCCNC(=O)c1cc(CC)n(Cc2nc(C(F)(F)F)nn2C)n1 [Compound 109]", "Plant response rating, Blackgrass": 10}
{"COMPOUND": "Cc1cc(C(=O)NCC(F)(F)F)nn1Cc1ccnc(C(F)(F)F)c1 [Compound 74]", "Plant response rating, Blackgrass": 5}
{"COMPOUND": "CCCc1cc(C(=O)NCC(F)(F)F)nn1Cc1ccnc(OC(F)F)c1 [Compound 127]", "Plant response rating, Blackgrass": 10}
{"COMPOUND": "CCCNC(=O)c1cc(OCC)n(Cc2ccnc(OC(F)F)c2)n1 [Compound 136]", "Plant response rating, Blackgrass": 15}
{"COMPOUND": "CCCc1cc(C(=O)NC(C)C)nn1Cc1ccnc(C(F)(F)F)c1 [Compound 186]", "Plant response rating, Blackgrass": 10}
{"COMPOUND": "CCc1cc(C(=O)NCC(F)(F)F)nn1Cc1cccc(OC(F)(F)F)c1 [Compound 20]", "Plant response rating, Blackgrass": 15}
{"COMPOUND": "CCc1cc(-c2ccc(C(F)(F)F)cc2)nn1Cc1ccnc(C(F)(F)F)c1 [Compound 110]", "Plant response rating, Blackgrass": 45}

====

In this section, each of the compounds is paired with its reported Pigweed plant response rating.
Tested on: pigweed
Assay: Test A postemergence
Type: in vivo, Amaranthus retroflexus
Settings: postemergence, 125 g ai/ha, about 10 days, visual rating on 0 to 100 scale (0 no effect, 100 complete control)

{"COMPOUND": "CCOc1cc(C(=O)NCC(F)(F)F)nn1Cc1ccnc(OC(F)F)c1", "EXPERIMENTAL_SYSTEM": "pigweed", "Pigweed plant response rating": 100}
{"COMPOUND": "CCONC(=O)c1cc(CC)n(Cc2ccnc(OC(F)F)c2)n1", "EXPERIMENTAL_SYSTEM": "pigweed", "Pigweed plant response rating": 100}
{"COMPOUND": "CCc1cc(C(=O)NCC(F)(F)F)nn1Cc1cc(C(F)(F)F)nn1C", "EXPERIMENTAL_SYSTEM": "pigweed", "Pigweed plant response rating": 90}
{"COMPOUND": "CCONC(=O)c1cc(CC)n(Cc2cccc(OC(F)(F)F)c2)n1", "EXPERIMENTAL_SYSTEM": "pigweed", "Pigweed plant response rating": 90}
{"COMPOUND": "CCCCNC(=O)c1cc(C)n(Oc2ccnc(C(F)(F)F)c2)n1", "EXPERIMENTAL_SYSTEM": "pigweed", "Pigweed plant response rating": 0}
{"COMPOUND": "CCCNC(=O)c1cc(CC)n(Cc2nc(C(F)(F)F)nn2C)n1", "EXPERIMENTAL_SYSTEM": "pigweed", "Pigweed plant response rating": 90}
{"COMPOUND": "CCCc1cc(-c2ccc(C(F)(F)F)cc2)nn1Cc1ccnc(C(F)(F)F)c1", "EXPERIMENTAL_SYSTEM": "pigweed", "Pigweed plant response rating": 60}
{"COMPOUND": "CCNC(=O)c1cc(CCF)n(Cc2ccnc(C(F)(F)F)c2)n1", "EXPERIMENTAL_SYSTEM": "pigweed", "Pigweed plant response rating": 100}
{"COMPOUND": "O=C(NC1CC1)c1cc(CCF)n(Cc2ccnc(C(F)(F)F)c2)n1", "EXPERIMENTAL_SYSTEM": "pigweed", "Pigweed plant response rating": 100}

====

System: blackgrass
Experiment: Test C preemergence
Format: in vivo, Alopecurus myosuroides
Conditions: preemergence, 62 g ai/ha; scale 0 to 100 (0 no effect, 100 complete control), 13 to 15 days
In this section, each of the molecules is paired with its reported Blackgrass plant response rating.
READOUT_KIND: Blackgrass plant response rating

{"COMPOUND": "CCCc1cc(C(=O)NC(C)C)nn1Cc1ccnc(C(F)(F)F)c1", "EXPERIMENTAL_SYSTEM": "blackgrass", "READOUT_KIND": "Blackgrass plant response rating", "OBSERVED_RESULT": 90}
{"COMPOUND": "CCCNC(=O)c1cc(CC)n(Cc2nc(C(F)(F)F)nn2C)n1", "EXPERIMENTAL_SYSTEM": "blackgrass", "READOUT_KIND": "Blackgrass plant response rating", "OBSERVED_RESULT": 100}
{"COMPOUND": "CCCNC(=O)c1cc(CCF)n(Cc2ccnc(C(F)(F)F)c2)n1", "EXPERIMENTAL_SYSTEM": "blackgrass", "READOUT_KIND": "Blackgrass plant response rating", "OBSERVED_RESULT": 85}
{"COMPOUND": "CCCc1cc(C(=O)NC2CC2)nn1Cc1cc(C(F)(F)F)nn1C", "EXPERIMENTAL_SYSTEM": "blackgrass", "READOUT_KIND": "Blackgrass plant response rating", "OBSERVED_RESULT": 85}
{"COMPOUND": "CCOc1cc(C(=O)NOC(C)C)nn1Cc1ccnc(C(F)(F)F)c1", "EXPERIMENTAL_SYSTEM": "blackgrass", "READOUT_KIND": "Blackgrass plant response rating", "OBSERVED_RESULT": 90}
{"COMPOUND": "CCCc1cc(C(=O)NC2CC2)nn1Cc1ccnc(OC(F)F)c1", "EXPERIMENTAL_SYSTEM": "blackgrass", "READOUT_KIND": "Blackgrass plant response rating", "OBSERVED_RESULT": 95}
{"COMPOUND": "CCCNC(=O)c1cc(OCC)n(Cc2ccnc(OC(F)F)c2)n1", "EXPERIMENTAL_SYSTEM": "blackgrass", "READOUT_KIND": "Blackgrass plant response rating", "OBSERVED_RESULT": 90}

====

Tested on: foxtail, giant
Experiment: Test C preemergence
Assay type: in vivo, Setaria faberii
Conditions: preemergence, 62 g ai/ha; scale 0 to 100 (0 no effect, 100 complete control), 13 to 15 days
Source text: […]

{"COMPOUND": "CCCc1cc(C(=O)NC2CC2)nn1Cc1cc(C(F)(F)F)nn1C [Compound 202]", "EXPERIMENTAL_SYSTEM": "foxtail, giant", "Foxtail, Giant plant response rating": 100}
{"COMPOUND": "CCc1cc(-c2ccc(C(F)(F)F)cc2)nn1Cc1ccnc(C(F)(F)F)c1 [Compound 110]", "EXPERIMENTAL_SYSTEM": "foxtail, giant", "Foxtail, Giant plant response rating": 98}
{"COMPOUND": "CCc1cc(C(=O)NCC(F)(F)F)nn1Cc1cc(C(F)(F)F)nn1C [Compound 108]", "EXPERIMENTAL_SYSTEM": "foxtail, giant", "Foxtail, Giant plant response rating": 100}
{"COMPOUND": "CCc1cc(C(=O)NCC(F)(F)F)nn1Cc1nc(C(F)(F)F)nn1C [Compound 107]", "EXPERIMENTAL_SYSTEM": "foxtail, giant", "Foxtail, Giant plant response rating": 100}
{"COMPOUND": "CCOc1cc(C(=O)NCC(F)(F)F)nn1Cc1ccnc(OC(F)F)c1 [Compound 128]", "EXPERIMENTAL_SYSTEM": "foxtail, giant", "Foxtail, Giant plant response rating": 100}
{"COMPOUND": "CCCc1cc(C(=O)NC(C)C)nn1Cc1cc(C(F)(F)F)nn1C [Compound 201]", "EXPERIMENTAL_SYSTEM": "foxtail, giant", "Foxtail, Giant plant response rating": 95}
{"COMPOUND": "CCc1cc(C(=O)NCC(F)(F)F)nn1Cc1ccnc(SC(F)(F)F)c1 [Compound 214]", "EXPERIMENTAL_SYSTEM": "foxtail, giant", "Foxtail, Giant plant response rating": 98}
{"COMPOUND": "CCCNC(=O)c1cc(CC)n(Cc2nc(C(F)(F)F)nn2C)n1 [Compound 109]", "EXPERIMENTAL_SYSTEM": "foxtail, giant", "Foxtail, Giant plant response rating": 100}
{"COMPOUND": "CCCc1cc(C(=O)NOC(C)C)nn1Cc1cc(C(F)(F)F)nn1C [Compound 203]", "EXPERIMENTAL_SYSTEM": "foxtail, giant", "Foxtail, Giant plant response rating": 98}
{"COMPOUND": "O=C(NC1CC1)c1cc(CCCl)n(Cc2ccnc(C(F)(F)F)c2)n1 [Compound 144]", "EXPERIMENTAL_SYSTEM": "foxtail, giant", "Foxtail, Giant plant response rating": 100}

Reference source for all entries: patent US20150105252A1
